- assay.info: Single dose 300 mg / 450 mg pharmacokinetic, safety and tolerability study in healthy male and female subjects
- assay.conditions: male, human, plasma, po, 450 mg
measured.parameter: concentration at 1 h (ng/mL)
Numbers only, in ng/mL.

**Q:** Supply reported concentration at 1 h belonging to this molecule: O=C1NCC2(c3ccc(Cl)c(Cl)c3)CC12 (stereo not shown)
**A:** 388

----------
- assay.info: Single rising oral dose (10-150 mg IR) safety, tolerance and pharmacokinetics in healthy male volunteers
- Type: in vivo, human
- assay.conditions: human, plasma, oral, 10 mg, individual subject; read-out: t1/2 (converted)
measured.parameter: half-life

**Q:** Supply reported half-life belonging to this compound: Clc1ccc([C@]23CNC[C@H]2C3)cc1Cl
**A:** 3.47 h

// provenance: patent US20160346249A1
